# Test system: HS 578T breast
# method: NCI-60 one-dose screen, 48 h (100 = growth as untreated, 0 = no growth, -100 = all killed)
# assay.conditions: 10 µM unless noted
About 83,000 compounds went through this panel and 20% of them were active in at least one assay; those are over-represented in the sample as a whole.
outcome.measure: growth (%)
Supply the numeric figure in %, leaving out any unit text.

Known growth results, listed for orientation:
CCN(CC)CCSc1c2ccc(Cl)cc2nc2ccc(OC)cc12	108
O=C(Nc1cccc(Cl)c1)c1cc([N+](=O)[O-])ccc1O	41.9
COc1ncc(-c2ccc3ncnc(Nc4cccc(Cl)c4)c3c2)cc1NS(=O)(=O)CCN1CCOCC1	-21.1
CSc1ccccc1C#C/C=C\C#Cc1ccccc1N1CCCC1=O	98

Let's switch to this compound now.
Q. So what's the measured growth for this one? CCC#CC[C@H]1C/C=C2/C(=O)C=C[C@@H]2C/C=C\CCCC(=O)O1
A. 40.2

Reference for the values: PubChem BioAssay (NCI)
